Target: UniProt:Q16769
Sequence (Q16769 33-361): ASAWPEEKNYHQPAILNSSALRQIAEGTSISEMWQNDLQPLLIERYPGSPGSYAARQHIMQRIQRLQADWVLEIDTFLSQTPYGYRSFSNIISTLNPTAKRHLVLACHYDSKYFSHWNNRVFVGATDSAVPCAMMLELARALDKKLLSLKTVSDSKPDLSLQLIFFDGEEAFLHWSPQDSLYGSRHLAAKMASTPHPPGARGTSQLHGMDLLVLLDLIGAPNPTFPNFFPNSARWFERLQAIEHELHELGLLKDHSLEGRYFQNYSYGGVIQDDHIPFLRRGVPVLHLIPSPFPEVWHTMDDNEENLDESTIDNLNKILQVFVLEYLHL
Assay: QC inhibition test, spectrophotometric, 96-well microplate
Assay type: biochemical
Design: corresponding to the coding region of human QC (Ala33-Leu361) was re-amplified and inserted into a pET-43.1a expression vector; Nus fusion (pET-43.1a construct) or thioredoxin fusion (pET-32a construct) (N, cleaved yes); (His)6 (pET-43.1a construct: N- and C-terminal sites; pET-32a construct: 5'-end, upstream of the Factor Xa site); made in house; host or cells: E. coli BL21 (DE3)
Settings: inhibitor 140 μM; substrate H-Gln-Gln-OH 0.55 mM; human QC 28.8 nM; preincubation 5 to 10 min; read-out: QC activity (% of control)
We label by threshold. Values of remaining activity at 140 µM strictly beneath 80% are true (1). Values of 80% and up are false (0).

Some entries whose results are on file:
[Q] Given the entry CCOC(=O)Cc1nnn[nH]1 [ethyl 1H-tetrazole-5-acetate] , would its reported remaining activity at 140 µM be below 80%?
[A] false (0)

[Q] Given the entry Nc1nc[nH]n1 [3-amino-1,2,4-triazole] , would its reported remaining activity at 140 µM be below 80%?
[A] false (0)

[Q] Given the entry c1ccc(Cn2ccnc2)cc1 [1-benzylimidazole] , would its reported remaining activity at 140 µM be below 80%?
[A] true (1)

[Q] Given the entry Nc1n[nH]c(N)n1 [3,5-diamino-1,2,4-triazole] , would its reported remaining activity at 140 µM be below 80%?
[A] false (0)

Now look at this entry.
[Q] Given the entry CSc1nnn[nH]1 [5-(methylthio)-1H-tetrazole] , would its reported remaining activity at 140 µM be below 80%?
[A] false (0)
